Answer each item with its documented Ki.
target.entity: JAK1 (Homo sapiens, UniProt P23458)
Construct: made in house; host or cells: SF9 insect cells (baculovirus)
Sequence (P23458 852-1154): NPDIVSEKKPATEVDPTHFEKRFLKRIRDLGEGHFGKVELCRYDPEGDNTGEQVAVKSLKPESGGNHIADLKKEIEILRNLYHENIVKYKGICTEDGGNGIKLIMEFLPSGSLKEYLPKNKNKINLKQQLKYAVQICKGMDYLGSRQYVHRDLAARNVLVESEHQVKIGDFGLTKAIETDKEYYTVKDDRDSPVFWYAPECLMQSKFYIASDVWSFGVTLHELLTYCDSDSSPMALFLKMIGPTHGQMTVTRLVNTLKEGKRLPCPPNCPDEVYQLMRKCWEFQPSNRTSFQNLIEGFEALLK
experiment: JAK1 inhibition (Table 4)
Assay type: biochemical
conditions.used: read-out: JAK1 Ki
Answers are plain numbers, in nM.

Example entries begin here.
O=C(O)[C@H]1C[C@@H](n2cnc3cnc4[nH]ccc4c32)C1 : 441
NC1CCCC(n2cnc3cnc4[nH]ccc4c32)C1 (single isomer, unassigned) [Example 368] : 27.8
CC(O)c1nc2cnc3[nH]ccc3c2n1C1CCN(CCC#N)CC1 (racemic) : 3.76

Give measured Ki for every item shown.
1. COCCNC1CCC(n2cnc3cnc4[nH]ccc4c32)C1 (racemic)
2. OC[C@H](O)c1nc2cnc3[nH]ccc3c2n1C1CCCCC1
3. O=C(Cc1nc2cnc3[nH]ccc3c2n1C1CCN(Cc2ccccc2)CC1)N1CCC(F)(F)CC1
4. Cc1nc2cnc3[nH]ccc3c2n1C1CCCCNC1 (racemic)
5. c1cnn(Cc2nc3cnc4[nH]ccc4c3n2C2CCNCC2)c1

176
7.77
3.6
39.7
91.9

Give measured Ki for every item shown.
1. CC(O)c1nc2cnc3[nH]ccc3c2n1C1CCCN(CCF)C1 (stereo not shown)
2. CC1(C)CC1C(=O)N1CCC[C@@H](n2cnc3cnc4[nH]ccc4c32)C1 (stereo partly shown)
3. CC(C)NC(=O)Cc1nc2cnc3[nH]ccc3c2n1C1CCN(CCC#N)CC1
4. CC(O)c1nc2cnc3[nH]ccc3c2n1C1CC2CCC(C1)N2 (stereo not shown)

63.8
16.2
5.26
10.6

Give measured Ki for every item shown.
1. Cc1nc2cnc3[nH]ccc3c2n1[C@H]1CC[C@H](NC(=O)OCC(F)F)CC1
2. CC(CF)N1CCC(n2c([C@@H](C)O)nc3cnc4[nH]ccc4c32)CC1 (stereo partly shown)
3. CCOC(=O)NCCc1nc2cnc3[nH]ccc3c2n1C1CCN(CC)CC1(F)F (single isomer, unassigned) [Example 680]
4. CC(O)c1nc2cnc3[nH]ccc3c2n1C1CCCN(C(=O)C2CCOC2)C1 (stereo not shown)
5. OCc1nc2cnc3[nH]ccc3c2n1C1CCN(CC(F)(F)F)CC1

1: 0.6; 2: 61.4; 3: 7.32; 4: 52.5; 5: 1.59

Give measured Ki for every item shown.
1. O=C(N[C@H]1CC[C@H](n2cnc3cnc4[nH]ccc4c32)CC1)c1ccccc1
2. CC(C)COCc1nc2cnc3[nH]ccc3c2n1C1CCN(CCC#N)CC1
3. CC1CN(CCC#N)CCC1n1cnc2cnc3[nH]ccc3c21 (racemic) [Example 323]
4. CC1(O)CCC(n2cnc3cnc4[nH]ccc4c32)CC1 (stereo not shown)
5. CC(O)CN1CCC(n2c(C(C)O)nc3cnc4[nH]ccc4c32)CC1 (stereo not shown)

1. 6.79
2. 81.2
3. 0.81
4. 1.67
5. 12.9

----------
target.entity: UniProtKB P29597
Answer each item with its documented pKi.
Answers are plain numbers, as −log10 of the molar value.

Give measured pKi for every item shown.
1. c1ncc(CN2CCC[C@@H](n3cnc4cnc5[nH]ccc5c43)C2)cn1
2. CCOC(=O)NCc1nc2cnc3[nH]ccc3c2n1C1CCN(CCC#N)CC1

1. 6.91
2. 6.92

Give measured pKi for every item shown.
1. CC(C)(O)Cc1nc2cnc3[nH]ccc3c2n1C1CCN(CCC#N)CC1
2. Cc1noc(C)c1S(=O)(=O)N1CCC(n2cnc3cnc4[nH]ccc4c32)CC1
3. CN(C)C(=O)N[C@H]1CC[C@H](n2cnc3cnc4[nH]ccc4c32)CC1

1: 6.86; 2: 7.07; 3: 7.06

Give measured pKi for every item shown.
1. C[C@@H](O)c1nc2cnc3[nH]ccc3c2n1[C@H]1COCCC1(F)F
2. OC1CCC(n2cnc3cnc4[nH]ccc4c32)C1 (centres unmarked)
3. N#CCCN1CCC(n2c(CC(=O)N3CCC(F)(F)CC3)nc3cnc4[nH]ccc4c32)CC1

[7.09, 7.11, 7.14]

Give measured pKi for every item shown.
1. CO[C@H](C)c1nc2cnc3[nH]ccc3c2n1C1CCCCC1
2. O[C@@H]1CC[C@@H](n2cnc3cnc4[nH]ccc4c32)C1

1. 6.90
2. 7.15

Fill in: pKi of "OC[C@]1(O)CC[C@@H](n2nnc3cnc4[nH]ccc4c32)CC1" is ___
7.13

----------
The reader will find Ki measurements below, all made with TYK2 (Homo sapiens, UniProt P29597).
Sequence (P29597 873-1187): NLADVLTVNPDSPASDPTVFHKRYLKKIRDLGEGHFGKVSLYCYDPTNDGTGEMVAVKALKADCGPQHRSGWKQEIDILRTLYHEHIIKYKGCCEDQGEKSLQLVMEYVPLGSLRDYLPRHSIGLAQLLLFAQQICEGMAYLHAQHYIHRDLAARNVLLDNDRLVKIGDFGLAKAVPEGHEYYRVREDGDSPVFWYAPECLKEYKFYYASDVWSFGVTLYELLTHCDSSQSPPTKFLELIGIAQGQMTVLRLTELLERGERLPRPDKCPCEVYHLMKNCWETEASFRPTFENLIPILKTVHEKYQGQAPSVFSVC
Give bare numbers, in nM.

Give measured Ki for every item shown.
1. O=C(N[C@H]1CC[C@H](n2c(CO)nc3cnc4[nH]ccc4c32)CC1)OCC1CC1
2. N#CCCN1CCC(n2c(C3CCOCC3)nc3cnc4[nH]ccc4c32)CC1
3. CC(C)CS(=O)(=O)NCc1nc2cnc3[nH]ccc3c2n1C1CCN(CCC#N)CC1

149
1290
179

----------
target.entity: JAK1 (Homo sapiens)
Construct: made in house; host or cells: SF9 insect cells (baculovirus)
experiment: JAK1 inhibition (Table 4)
Format: biochemical
conditions.used: read-out: JAK1 Ki
recorded.metric: Ki (nM)
Answers are plain numbers, in nM.

C[C@@H](O)c1nc2cnc3[nH]ccc3c2n1[C@H]1COCCC1(F)F [Example 1011] : 18
Cc1nc2cnc3[nH]ccc3c2n1C1CCC(NC(=O)N(C)CC(F)F)CC1 (centres unmarked) [Example 750] : 4.74
OC1CCCC(n2nnc3cnc4[nH]ccc4c32)C1 (single isomer, unassigned) [Example 554] : 13.3
CC(O)c1nc2cnc3[nH]ccc3c2n1C1CC2CCC1O2 (single isomer, unassigned) [Example 847] : 105
Cc1nc2cnc3[nH]ccc3c2n1C1CCN(Cc2cccnc2)CC1 [Example 283] : 0.84
Cc1nc2cnc3[nH]ccc3c2n1C(C)C1CCCO1 (single isomer, unassigned) [Example 427] : 201

Give measured Ki for every item shown.
1. CN(C(=O)Cc1nc2cnc3[nH]ccc3c2n1C1CCNCC1)C1CCCC1 [Example 257]
2. c1cncc(Cc2nc3cnc4[nH]ccc4c3n2C2CCOCC2)c1 [Example 469]
3. N#CCCN1CCC(n2c(CCn3cncn3)nc3cnc4[nH]ccc4c32)CC1 [Example 386]

1: 200; 2: 215; 3: 17.8

Give measured Ki for every item shown.
1. c1cc2c(ncc3nc(C4CCC4)n(C4CCNCC4)c32)[nH]1 [Example 326]
2. CC1CN(S(C)(=O)=O)CCC1n1cnc2cnc3[nH]ccc3c21 (racemic) [Example 345]
3. c1cnc(N2CCC(n3cnc4cnc5[nH]ccc5c43)CC2)nc1 [Example 64]
4. C[C@@H](O)c1nc2cnc3[nH]ccc3c2n1[C@H]1CC[C@H](N(C)CCC#N)CC1 [Example 616]

1. 27.6
2. 9.12
3. 36.4
4. 4.49

Give measured Ki for every item shown.
1. OCCN1CCC(n2cnc3cnc4[nH]ccc4c32)CC1 [Example 338]
2. N#CCCN1CCC(n2c(CCNC(=O)c3ccccc3)nc3cnc4[nH]ccc4c32)CC1 [Example 380]
3. COCCNC(=O)O[C@H]1CC[C@H](n2cnc3cnc4[nH]ccc4c32)CC1 [Example 595]
4. CCOC(=O)NCc1nc2cnc3[nH]ccc3c2n1C1CCN(CCC#N)CC1 [Example 493]
5. CC1(n2cnc3cnc4[nH]ccc4c32)CCN(C(=O)CC#N)CC1 [Example 579]
6. CCN1CC[C@@H](n2c(CCNS(=O)(=O)C(C)C)nc3cnc4[nH]ccc4c32)[C@@H](F)C1 [Example 810]
7. CC(O)c1nc2cnc3[nH]ccc3c2n1C1CCCN(C(=O)CC2CCCO2)C1 (centres unmarked) [Example 789]

1: 21.1; 2: 3.98; 3: 10.4; 4: 11.3; 5: 106; 6: 5.72; 7: 438

Give measured Ki for every item shown.
1. Cc1nc2cnc3[nH]ccc3c2n1C1CCC(NC(=O)N(C)CC(F)(F)F)C1 (racemic) [Example 736]
2. N#CC1(C(=O)N2CCC[C@@H](n3cnc4cnc5[nH]ccc5c43)C2)CCC1 [Example 316]
3. Cc1nc2cnc3[nH]ccc3c2n1[C@H]1CC[C@H](N2CCC(O)C2)CC1 (mixture of isomers) [Example 597]
4. CC1(n2cnc3cnc4[nH]ccc4c32)CCN(S(=O)(=O)c2cccnc2)CC1 [Example 753]
5. CC(=O)N1CCC(c2nc3cnc4[nH]ccc4c3n2C2CCN(C(C)CC#N)CC2)CC1 (racemic) [Example 400]
6. O=C(N[C@H]1CC[C@H](n2cnc3cnc4[nH]ccc4c32)CC1)c1ccncc1 [Example 570]

1: 1.28; 2: 2.77; 3: 30.8; 4: 18.4; 5: 62.6; 6: 11.2

----------
target.entity: JAK2 (Homo sapiens, UniProt O60674)
Construct: made in house; host or cells: SF9 insect cells (baculovirus)
Sequence (O60674 812-1132): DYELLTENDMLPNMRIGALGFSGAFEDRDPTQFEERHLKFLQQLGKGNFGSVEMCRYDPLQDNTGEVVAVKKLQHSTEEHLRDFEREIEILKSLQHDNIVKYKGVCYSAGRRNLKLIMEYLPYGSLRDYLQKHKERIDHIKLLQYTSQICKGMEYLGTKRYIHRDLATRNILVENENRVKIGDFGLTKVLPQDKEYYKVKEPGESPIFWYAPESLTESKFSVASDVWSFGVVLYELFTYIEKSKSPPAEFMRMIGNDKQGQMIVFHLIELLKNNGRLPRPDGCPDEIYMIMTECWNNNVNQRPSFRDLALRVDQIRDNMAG
experiment: JAK2 inhibition (Table 4)
Type: biochemical
conditions.used: read-out: JAK2 Ki
Structures can show the parent of a compound that is named as a salt.
Answer each item with its documented Ki.

Example entries begin here.
OC1(C2CC2)CCC(n2cnc3cnc4[nH]ccc4c32)CC1 (stereo not drawn) [Example 995] : 13.7 nM
CC(C)c1nccn1CCc1nc2cnc3[nH]ccc3c2n1C1CCN(CCC#N)CC1 : 19.6 nM
Cc1nc2cnc3[nH]ccc3c2n1C1CCC2CC(=O)NC2C1 (single isomer, unassigned) [Example 112a] : 58.3 nM
CC(C)(C)OC(=O)NC1CCCC(n2cnc3cnc4[nH]ccc4c32)C1 (single isomer, unassigned) [Example 477] : 171 nM

Give measured Ki for every item shown.
1. N#CC1(C(=O)N2CCC[C@@H](n3cnc4cnc5[nH]ccc5c43)C2)CCC1
2. C[C@@H](O)c1nc2cnc3[nH]cc(Br)c3c2n1C1CCC(CC#N)CC1 (stereo partly drawn)

1. 3.2 nM
2. 1.66 nM

Give measured Ki for every item shown.
1. COC1CNCCC1n1nnc2cnc3[nH]ccc3c21 (racemic)
2. CS(=O)(=O)Cc1nc2cnc3[nH]ccc3c2n1C1CCN(CCC#N)CC1
3. O=C1OC(CO)CN1[C@H]1CC[C@H](n2cnc3cnc4[nH]ccc4c32)CC1 (stereo partly drawn)
4. CCS(=O)(=O)N1CCC(n2cnc3cnc4[nH]ccc4c32)CC1
5. FC1CNCCC1n1cnc2cnc3[nH]ccc3c21 (racemic)
6. OCc1nc2cnc3[nH]ccc3c2n1C1CCOCC1
7. Cc1cc(CN2CCC(n3c([C@@H](C)O)nc4cnc5[nH]ccc5c43)CC2)no1
8. Cc1nc2cnc3[nH]ccc3c2n1C1CCN(Cc2ccccc2)CC1C (racemic) [Example 151, dihydrochloride salt]

1: 61.2 nM; 2: 34 nM; 3: 2.41 nM; 4: 4.02 nM; 5: 128 nM; 6: 76.6 nM; 7: 32.1 nM; 8: 2.27 nM

Give measured Ki for every item shown.
1. CNC(=O)Cc1nc2cnc3[nH]ccc3c2n1C1CCCOC1 (racemic)
2. CC(O)c1nc2cnc3[nH]ccc3c2n1C1CCN(Cc2cnco2)CC1F (stereo not drawn)

1: 333 nM; 2: 38.5 nM
